Cited source for all entries: patent US10375956B2

# System: Echinochloa crus-galli (ECHCG)
# ASSAY NAME: Test 1 glasshouse assay, post-emergence herbicidal activity
# Assay type: in vivo
# EXPERIMENTAL SETUP: 312 h, post-emergence (Example 1B Table 1), 30 g/ha, after 13 days, read-out: Percentage phytotoxicity ECHCG
pest or weed control at 30 g/ha by entry:

{"columns": ["COMPOUND", "UNIT ABBREVIATION", "pest or weed control at 30 g/ha"],
 "data": [
  ["C#CCC1CC(=O)C(c2cc(-c3ncc(Cl)cc3F)ccc2C)C1=O (centres unmarked)", "%", 60],
  ["C#CCC1CC(=O)C(c2c(Cl)cc(-c3ccc(Cl)cc3)cc2OC)C1=O (centres unmarked)", "%", 100],
  ["C#CCC1CC(=O)C(c2c(Cl)cc(-c3ccc(F)c(F)c3)cc2OC)C1=O (centres unmarked)", "%", 100],
  ["C#CCC1CC(=O)C(c2c(F)cc(-c3ccc(F)cc3)cc2OC)C1=O (centres unmarked)", "%", 80],
  ["C#CCC1CC(=O)C(c2c(Cl)cc(-c3ccc(F)cc3F)cc2OC)C1=O (centres unmarked)", "%", 100]
]}
